Tested on: ECHOG Barnyardgrass
Measurement Description: Preemergence herbicidal evaluation, ECHOG
Type: in vivo, Echinochloa crus-galli, (L.) Beau
Parameters: scale not given here
Condition Context: preemergence, rate 0.016 kg/ha
Recorded ECHCG herbicidal rating for the following molecules
Result Type: ECHCG herbicidal rating

>>> reported_value("COCc1ccccc1-n1nnc2cc(F)c(-n3c(=O)cc(C(F)(F)F)n(C)c3=O)cc21")
1.0
>>> reported_value("C=CCOc1ccc(C)cc1-n1nnc2cc(F)c(-n3c(=O)cc(C(F)(F)F)n(C)c3=O)cc21")
1.0
>>> reported_value("CC(C)c1ccc(-n2nnc3cc(F)c(-n4c(=O)cc(C(F)(F)F)n(C)c4=O)cc32)cc1")
0.0
>>> reported_value("COC(=O)COc1ccc(C)cc1-n1nnc2cc(F)c(-n3c(=O)cc(C(F)(F)F)n(C)c3=O)cc21")
4.0
>>> reported_value("Cc1ccc(-n2nnc3cc(F)c(-n4c(=O)cc(C(F)(F)F)n(C)c4=O)cc32)cc1C")
0.0
>>> reported_value("C#CCOC(=O)COc1ccc(C)c(-n2nnc3cc(F)c(-n4c(=O)cc(C(F)(F)F)n(C)c4=O)cc32)c1")
0.0
>>> reported_value("Cc1ccc(O)c(-n2nnc3cc(F)c(-n4c(=O)cc(C(F)(F)F)n(C)c4=O)cc32)c1")
0.0
